Target: T1, Recombinant human PSGL-1(ECD)-hFc1 (R&D Systems, Cat. 3345-PS) (human, UniProt Q14242 42-305)
T1 construct: Bought; Gln42-Val295 counted on AAC50061; also called PSGL-1-Fc; PSGL-1-hFc1 chimera; not shown: human IgG1 Fc, Pro100-Lys330
T1 sequence: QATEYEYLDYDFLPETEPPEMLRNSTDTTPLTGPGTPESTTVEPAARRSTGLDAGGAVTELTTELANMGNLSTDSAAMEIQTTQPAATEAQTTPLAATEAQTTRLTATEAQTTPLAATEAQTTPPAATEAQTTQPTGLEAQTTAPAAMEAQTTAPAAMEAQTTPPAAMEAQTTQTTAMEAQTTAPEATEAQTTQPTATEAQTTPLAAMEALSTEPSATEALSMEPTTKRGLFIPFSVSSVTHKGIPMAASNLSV
Experiment: blocking ELISA vs VISTA-Fc, pH 6.0
I'd appreciate it if you could supply % max Block values for the items below.

Challenge: Quick one: give measured % max Block for 20I15 (antibody, V domains shown, From mouse immunisation; only variable domains given; also called 20115) VH: EVKLVESGGGLVQPGGSLSLSCAASGFTFTDYYMSWVRQPPGKALEWLGFIRNKANGYTTEYSASVKGRFTISRDNSQSILYLQMNALRAEDSATYYCARTYLRRGYFDVWGTGTTVTVSS VL: DIVLTQSPASLAVSLGQRATISCRASKSVSTSGYSYMHWFQQKPGQPPKLLIYLASNLESGVPARFSGSGSGTDFTLNIHPVEEEDAATYYCQHSRELPLTFGAGTKLELK
Response given: 85%

Challenge: Fill in reported % max Block for this entry: 9F9 (antibody, V domains shown, Control anti-PSGL-1 mAb, recombinant; only variable domains given; also called 9F6) VH: EVQLVETGGGLVQPKGSLKLSCAASGFTFNTNAMNWVRQAPGKGLEWVARIRSKSNNYATYYADSVKDRFTISRDDTQSMIYLQMNNLKTEDTGMYYCVRGGSYWYFDVWGAGTTVTVSS VL: DVLMTQTPLSLPVSLGDQASISCRSSQSIVNSNGNTYLEWYLQKPGQSPKLLIYKVSNRFSGVPDRFSGSGSGTDFTLKISRVEAEDLGVYYCFQGSHVPWTFGGGTKLEIK
Response given: 100%
